molecular target: EGFR L858R/T790M/C797S (Homo sapiens, UniProt P00533, C797S/L858R/T790M); construct: expressed in transfected cells; host or cells: BaF3-LTC; experiment: EGFR degradation HTRF assay in BaF3-LTC cells; format: cell-based; settings: BaF3-LTC (L858R/T790M/C797S), maximum percentage of inhibition (degradation); read-out: BaF3-LTC Dmax (%)
Sequence (P00533 25-1210 T790M/C797S/L858R): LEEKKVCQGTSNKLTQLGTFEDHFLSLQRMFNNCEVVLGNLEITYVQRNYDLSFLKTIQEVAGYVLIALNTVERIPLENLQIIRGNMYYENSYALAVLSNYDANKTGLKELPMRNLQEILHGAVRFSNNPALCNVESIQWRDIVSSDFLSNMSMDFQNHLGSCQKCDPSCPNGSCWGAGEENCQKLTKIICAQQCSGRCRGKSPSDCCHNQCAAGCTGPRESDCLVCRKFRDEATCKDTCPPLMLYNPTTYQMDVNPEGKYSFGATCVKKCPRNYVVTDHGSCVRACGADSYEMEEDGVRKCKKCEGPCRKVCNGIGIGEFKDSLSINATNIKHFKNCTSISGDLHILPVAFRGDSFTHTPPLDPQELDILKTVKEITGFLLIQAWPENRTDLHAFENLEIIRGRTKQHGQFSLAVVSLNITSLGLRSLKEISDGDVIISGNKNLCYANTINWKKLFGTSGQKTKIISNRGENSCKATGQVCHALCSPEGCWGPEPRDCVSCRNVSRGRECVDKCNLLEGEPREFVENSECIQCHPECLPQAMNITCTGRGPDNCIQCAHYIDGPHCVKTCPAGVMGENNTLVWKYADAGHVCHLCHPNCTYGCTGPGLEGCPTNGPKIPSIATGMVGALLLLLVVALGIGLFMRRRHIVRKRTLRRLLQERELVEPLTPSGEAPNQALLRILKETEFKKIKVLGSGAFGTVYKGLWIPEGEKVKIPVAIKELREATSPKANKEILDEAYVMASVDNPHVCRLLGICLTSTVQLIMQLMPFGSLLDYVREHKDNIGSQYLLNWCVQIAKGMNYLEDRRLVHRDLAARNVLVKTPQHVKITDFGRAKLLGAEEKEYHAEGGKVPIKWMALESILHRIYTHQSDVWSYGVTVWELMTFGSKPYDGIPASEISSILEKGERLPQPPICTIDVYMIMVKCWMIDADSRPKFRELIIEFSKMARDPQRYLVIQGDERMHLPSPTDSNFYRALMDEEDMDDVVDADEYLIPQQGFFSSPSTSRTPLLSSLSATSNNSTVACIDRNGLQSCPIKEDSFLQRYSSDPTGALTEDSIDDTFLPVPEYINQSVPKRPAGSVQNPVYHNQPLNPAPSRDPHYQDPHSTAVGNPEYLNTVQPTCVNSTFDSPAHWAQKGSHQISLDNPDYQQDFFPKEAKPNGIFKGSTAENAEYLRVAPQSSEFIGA
QUANTITY: Dmax (%)
Give the number; % is assumed, so skip it.

Return reported Dmax; argument: "CCc1ncc2c(P(C)(C)=O)c(Nc3nc(Nc4cc(CC)c(N5CCC(N6CCN(C(=O)[C@@H]7CCN(c8cc(F)c([C@H]9CCC(=O)NC9=O)c(F)c8)C7)CC6)CC5)cc4OC)ncc3Br)ccc2n1"
90.4

Return reported Dmax; argument: CCc1ccc2c(P(C)(C)=O)c(Nc3nc(Nc4cc(CC)c(N5CCC(N6CCN(CCc7ccc8c(c7)oc(=O)n8C7CCC(=O)NC7=O)CC6)CC5)cc4OC)ncc3Br)ccc2n1 (centres unmarked)
92.7

Return reported Dmax; argument: "CCc1ccc2c(P(C)(C)=O)c(Nc3nc(Nc4cc(CC)c(N5CCC(N6CCN(CCc7cc(F)c([C@H]8CCC(=O)NC8=O)c(F)c7)CC6)CC5)cc4OC)ncc3Br)ccc2n1"
95.4

Return reported Dmax; argument: "CCc1cc(Nc2ncc(Br)c(Nc3ccc4nc(C)c(F)cc4c3P(C)(C)=O)n2)c(OC)cc1N1CCC(N2CCN(C(=O)[C@@H]3CCN(c4cc(F)c([C@H]5CCC(=O)NC5=O)c(F)c4)C3)CC2)CC1"
96.6

Return reported Dmax; argument: CCOc1cc(N2CCC(N3CCN(CCc4cccc5c4oc(=O)n5C4CCC(=O)NC4=O)CC3)CC2)c(CC)cc1Nc1ncc(Br)c(Nc2ccc3nc(CC)ccc3c2P(C)(C)=O)n1 (centres unmarked)
94.6

====

target: EGFR L858R/C797S (Homo sapiens, UniProt P00533, C797S/L858R); construct: expressed in transfected cells; host or cells: BaF3 LC; assay: EGFR degradation HTRF assay in BaF3 LC cells; format: cell-based; settings: BaF3 LC (L858R/C797S), maximum percentage of inhibition (degradation); read-out: BaF3 LC Dmax (%)
Sequence (P00533 25-1210 C797S/L858R): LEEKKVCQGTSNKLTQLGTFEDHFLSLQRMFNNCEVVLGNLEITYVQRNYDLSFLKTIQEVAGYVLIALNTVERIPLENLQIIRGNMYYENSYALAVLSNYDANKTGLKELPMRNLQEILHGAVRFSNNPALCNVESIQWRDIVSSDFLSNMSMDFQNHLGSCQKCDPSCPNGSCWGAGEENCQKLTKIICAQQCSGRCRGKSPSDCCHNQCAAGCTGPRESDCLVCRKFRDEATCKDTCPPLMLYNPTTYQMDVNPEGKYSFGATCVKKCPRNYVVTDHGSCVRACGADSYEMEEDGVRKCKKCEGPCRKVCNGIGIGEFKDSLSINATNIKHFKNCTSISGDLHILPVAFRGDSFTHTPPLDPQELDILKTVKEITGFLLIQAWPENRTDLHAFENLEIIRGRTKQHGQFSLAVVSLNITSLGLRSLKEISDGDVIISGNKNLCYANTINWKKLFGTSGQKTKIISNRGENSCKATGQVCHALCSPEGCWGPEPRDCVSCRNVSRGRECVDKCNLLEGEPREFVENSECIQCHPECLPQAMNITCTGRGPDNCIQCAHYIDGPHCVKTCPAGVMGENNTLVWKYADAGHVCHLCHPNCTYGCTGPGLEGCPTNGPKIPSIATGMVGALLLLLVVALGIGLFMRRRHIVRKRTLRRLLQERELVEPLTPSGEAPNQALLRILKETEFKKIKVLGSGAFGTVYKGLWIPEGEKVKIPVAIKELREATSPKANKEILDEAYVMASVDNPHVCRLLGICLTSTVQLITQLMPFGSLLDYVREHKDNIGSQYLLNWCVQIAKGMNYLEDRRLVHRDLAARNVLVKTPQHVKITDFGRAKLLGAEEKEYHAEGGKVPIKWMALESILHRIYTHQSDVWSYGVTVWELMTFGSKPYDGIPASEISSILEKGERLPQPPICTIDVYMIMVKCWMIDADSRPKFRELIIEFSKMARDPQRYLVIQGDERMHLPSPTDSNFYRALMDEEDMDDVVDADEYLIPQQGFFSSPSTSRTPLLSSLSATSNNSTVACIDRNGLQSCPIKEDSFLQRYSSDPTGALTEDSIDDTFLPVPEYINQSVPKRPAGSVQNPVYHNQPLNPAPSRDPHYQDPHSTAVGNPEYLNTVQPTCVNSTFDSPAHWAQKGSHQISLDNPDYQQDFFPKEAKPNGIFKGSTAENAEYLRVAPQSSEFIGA
QUANTITY: Dmax

Examples with their reported Dmax follow.
COc1cc(N2CCC3(CCN(CCCCCOc4cccc5c4CN(C4CCC(=O)NC4=O)C5=O)CC3)CC2)c(C)cc1Nc1ncc(Br)c(Nc2ccc3nccnc3c2P(C)(C)=O)n1 (stereo not shown)
90%
CCOc1cc(N2CCC(N3CCN(CCc4cccc5c4C4(CC4)C(=O)N5C4CCC(=O)NC4=O)CC3)CC2)c(CC)cc1Nc1ncc(Br)c(Nc2ccc3nc(CC)ccc3c2P(C)(C)=O)n1 (stereo not shown)
87.7%
CCc1ncc2c(P(C)(C)=O)c(Nc3nc(Nc4cc(CC)c(N5CCC(N6CCN(CCc7cc(F)c([C@H]8CCC(=O)NC8=O)c(F)c7)CC6)CC5)cc4OC)ncc3Br)ccc2n1
92.4%
CCOc1cc(N2CCC(N3CCN(CCc4cc(F)c([C@H]5CCC(=O)NC5=O)c(F)c4)CC3)CC2)c(CC)cc1Nc1ncc(Br)c(Nc2cc(F)c3nc(CC)ccc3c2P(C)(C)=O)n1
87.8%
CCOc1cc(N2CCC(N3CCN(CCc4cccc5c4oc(=O)n5C4CCC(=O)NC4=O)CC3)CC2)c(CC)cc1Nc1ncc(Br)c(Nc2cc(F)c3nc(CC)ccc3c2P(C)(C)=O)n1 (stereo not shown)
87.1%

Return reported Dmax; argument: "CCc1cc(Nc2ncc(Br)c(Nc3ccc4nc(C)ccc4c3P(C)(C)=O)n2)c(OC)cc1N1CCC(N2CCN(C(=O)[C@H]3CN(c4cc(F)c([C@H]5CCC(=O)NC5=O)c(F)c4)CC3(C)C)CC2)CC1"
95.6%

Return reported Dmax; argument: CCOc1cc(N2CCC(N3CCN(CCc4c(F)ccc5c4n(CC)c(=O)n5C4CCC(=O)NC4=O)CC3)CC2)c(CC)cc1Nc1ncc(Br)c(Nc2ccc3c(=O)n(CC)ncc3c2P(C)(C)=O)n1 (stereo not shown)
90.4%

Return reported Dmax; argument: "CCOc1cc(N2CCC(N3CCN(CC4CN(c5cc(F)c([C@H]6CCC(=O)NC6=O)c(F)c5)C4)CC3)CC2)c(CC)cc1Nc1ncc(Br)c(Nc2ccc3c(=O)n(CC)ncc3c2P(C)(C)=O)n1"
86.8%

Return reported Dmax; argument: "CCc1cc(Nc2ncc(Br)c(Nc3ccc4nc(C)ccc4c3P(C)(C)=O)n2)c(OC)cc1N1CCC(N2CCN(C(=O)[C@@H]3CCN(c4cc(F)c([C@H]5CCC(=O)NC5=O)c(F)c4)C3)CC2)CC1"
94.3%

Return reported Dmax; argument: "CCc1cc(Nc2ncc(Br)c(Nc3ccc4nc(C)c(F)cc4c3P(C)(C)=O)n2)c(OC)cc1N1CCC(N2CCN(C(=O)[C@H]3CN(c4cc(F)c([C@H]5CCC(=O)NC5=O)c(F)c4)CC3(C)C)CC2)CC1"
95.9%

====

Overview of reported Dmax across a group of molecules:
target: EGFR L858R/C797S (Homo sapiens, UniProt P00533, C797S/L858R); construct: expressed in transfected cells; host or cells: BaF3 LC; test: EGFR degradation HTRF assay in BaF3 LC cells; assay type: cell-based; settings: BaF3 LC (L858R/C797S), maximum percentage of inhibition (degradation); read-out: BaF3 LC Dmax (%)

CCc1ccc2c(P(C)(C)=O)c(Nc3nc(Nc4cc(CC)c(N5CCC(N6CCN(C(=O)[C@@H]7CCN(c8cc(F)c([C@H]9CCC(=O)NC9=O)c(F)c8)C7)CC6)CC5)cc4OC)ncc3Br)ccc2n1
86.6%

Return reported Dmax; argument: "CCc1ncc2c(P(C)(C)=O)c(Nc3nc(Nc4cc(CC)c(N5CCC(N6CCN(C(=O)[C@@H]7CCN(c8cc(F)c([C@H]9CCC(=O)NC9=O)c(F)c8)C7)CC6)CC5)cc4OC)ncc3Br)ccc2n1"
87.2%

Return reported Dmax; argument: CCOc1cc(N2CCC(N3CCN(CCc4cccc5c4oc(=O)n5C4CCC(=O)NC4=O)CC3)CC2)c(CC)cc1Nc1ncc(Br)c(Nc2ccc3nc(CC)ccc3c2P(C)(C)=O)n1 (stereo not shown)
85.5%

Return reported Dmax; argument: CCc1cc(Nc2ncc(Br)c(Nc3ccc4c(=O)n(C)ncc4c3P(C)(C)=O)n2)c(OC)cc1N1CCC(N2CCN(CCc3cccc4c3C3(CC3)C(=O)N4C3CCC(=O)NC3=O)CC2)CC1 (stereo not shown)
94.5%

Return reported Dmax; argument: "CCc1cc(Nc2ncc(Br)c(Nc3ccc4nc(C)ccc4c3P(C)(C)=O)n2)c(OC2CC2)cc1N1CCC(N2CCN(CCc3cc(F)c([C@H]4CCC(=O)NC4=O)c(F)c3)CC2)CC1"
76.6%

Return reported Dmax; argument: CCOc1cc(N2CCC(N3CCN(CCc4cc(F)cc5c4n(C)c(=O)n5C4CCC(=O)NC4=O)CC3)CC2)c(CC)cc1Nc1ncc(Br)c(Nc2ccc3nc(CC)ccc3c2P(C)(C)=O)n1 (stereo not shown)
89.9%

====

target: EGFR L858R/T790M/C797S (Homo sapiens, UniProt P00533, C797S/L858R/T790M); construct: expressed in transfected cells; host or cells: BaF3-LTC; test: EGFR degradation HTRF assay in BaF3-LTC cells; format: cell-based; conditions: BaF3-LTC (L858R/T790M/C797S), maximum percentage of inhibition (degradation); read-out: BaF3-LTC Dmax (%)
Overview of reported Dmax across a group of compounds:
Give the number; % is assumed, so skip it.

CCOc1cc(N2CCC(N3CCN(CCc4cc(F)c([C@H]5CCC(=O)NC5=O)c(F)c4)CC3)CC2)c(CC)cc1Nc1ncc(C)c(Nc2cc(F)c3nc(CC)ccc3c2P(C)(C)=O)n1 [Example 733]
89.5

Return reported Dmax; argument: CCc1cc(Nc2ncc(Br)c(Nc3ccc4nc(C)ccc4c3P(C)(C)=O)n2)c(OC)cc1N1CCC(N2CCN(C(=O)[C@H]3CN(c4cc(F)c([C@H]5CCC(=O)NC5=O)c(F)c4)CC3(C)C)CC2)CC1 [Example 487]
98

Return reported Dmax; argument: CCc1cc(Nc2ncc(Br)c(Nc3ccc4nc(C5CC5)ccc4c3P(C)(C)=O)n2)c(OC)cc1N1CCC(N2CCN(CCc3cc(F)c([C@H]4CCC(=O)NC4=O)c(F)c3)CC2)CC1 [Example 741]
96.6

====

molecular target: EGFR L858R/C797S (Homo sapiens, UniProt P00533, C797S/L858R); construct: expressed in transfected cells; host or cells: BaF3 LC; test: EGFR degradation HTRF assay in BaF3 LC cells; type: cell-based; settings: BaF3 LC (L858R/C797S), maximum percentage of inhibition (degradation); read-out: BaF3 LC Dmax (%)
Lab note: compare Dmax against 90%. Equal or greater, write Y. Smaller, write N.

These solved cases illustrate the format of a correct answer.
CCc1cc(Nc2ncc(Br)c(Nc3ccc4nc(C)c(F)cc4c3P(C)(C)=O)n2)c(OC)cc1N1CCC(N2CCN(C(=O)[C@@H]3CCN(c4cc(F)c([C@H]5CCC(=O)NC5=O)c(F)c4)C3)CC2)CC1
Y
CCOc1cc(N2CCC(N3CCN(CCc4cc(F)c([C@H]5CCC(=O)NC5=O)c(F)c4)CC3)CC2)c(CC)cc1Nc1ncc(Br)c(Nc2ccc3nc(CC)ccc3c2P(C)(C)=O)n1
N
CCOc1cc(N2CCC(N3CCN(CCc4ccc(F)c5c4oc(=O)n5C4CCC(=O)NC4=O)CC3)CC2)c(CC)cc1Nc1ncc(Br)c(Nc2ccc3nc(CC)ccc3c2P(C)(C)=O)n1 (stereo not shown)
N
CCOc1cc(N2CCC(N3CCN(CCc4cccc5c4C(C)(C)C(=O)N5C4CCC(=O)NC4=O)CC3)CC2)c(CC)cc1Nc1ncc(Br)c(Nc2ccc3c(=O)n(CC)ncc3c2P(C)(C)=O)n1 (stereo not shown)
Y

Moving on to another molecule below.
Decide: Dmax of CCc1ccc2c(P(C)(C)=O)c(Nc3nc(Nc4cc(C)c(N5CCC(N6CCN(CCc7cccc8c7n(C)c(=O)n8C7CCC(=O)NC7=O)CC6)CC5)cc4OC4CC4)ncc3Br)ccc2n1 (stereo not shown) >= 90%?
Y
